System tested: human recombinant OX2 (hOX2) receptor expressed in CHO cells (Homo sapiens, UniProt O43614)
Construct: host or cells: CHO cells (hOX2-CHO)
Sequence (O43614 whole entry): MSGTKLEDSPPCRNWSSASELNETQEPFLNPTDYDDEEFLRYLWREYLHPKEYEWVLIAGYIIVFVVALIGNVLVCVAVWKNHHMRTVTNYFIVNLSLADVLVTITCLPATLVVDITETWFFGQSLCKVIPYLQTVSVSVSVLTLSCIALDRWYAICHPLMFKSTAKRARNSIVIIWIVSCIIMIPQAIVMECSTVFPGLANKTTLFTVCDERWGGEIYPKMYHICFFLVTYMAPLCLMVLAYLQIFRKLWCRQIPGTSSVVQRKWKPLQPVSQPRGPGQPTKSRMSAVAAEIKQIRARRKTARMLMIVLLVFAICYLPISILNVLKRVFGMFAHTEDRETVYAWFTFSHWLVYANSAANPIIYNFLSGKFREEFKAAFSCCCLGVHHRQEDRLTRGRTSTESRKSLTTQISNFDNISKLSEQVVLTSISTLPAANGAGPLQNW
Method: IP-1 accumulation assay (IP-One HTRF) in hOX2-CHO cells
Type: cell-based
Study conditions: 60 min at 37° C., 11 points CRC, response as % of maximal OX-A response
pEC50: −log10 of the molar value.
Field: pEC50. Provide a value for each of the compounds that follow.

Okay, here is my list. What is pEC50 for each of these?
1. Cc1cc(C(CNS(=O)(=O)CF)CO[C@H]2CC[C@@H](c3cc(F)cc(F)c3)CC2)c(=O)n(C)c1 (relative stereo)
2. Cc1ccn(C(CNS(C)(=O)=O)CO[C@H]2CC[C@@H](c3ccccc3)CC2)n1 (single isomer, unassigned; isomer 2) [Example 2ac]
3. CS(=O)(=O)NCC(CO[C@H]1CC[C@@H](c2ccccc2)CC1)n1cc(C#N)ccc1=O (stereo partly shown)

[reply]
> 7.00
< 5.00
5.00 to 6.00

Okay, here is my list. What is pEC50 for each of these?
1. Cc1cc(C(CNS(C)(=O)=O)CO[C@H]2CC[C@@H](c3ccccc3)CC2)c(=O)n(C)c1 (stereo partly shown)
2. Cc1ccn(C(CNS(C)(=O)=O)CO[C@H]2CC[C@@H](c3ccccc3)CC2)c(=O)c1 (stereo partly shown)
3. CS(=O)(=O)NCC(Cc1cccc(-c2ccccc2)c1)n1ccccc1=O (stereo not shown)

[reply]
5.00 to 6.00
5.00 to 6.00
< 5.00

[ask] Query: pEC50; subject: Cc1cc(C)c(=O)n(C(CNS(=O)(=O)CF)CO[C@H]2CC[C@@H](c3cccc(F)c3)CC2)c1 (single isomer, unassigned; isomer 2) [Example 2av]
[reply] 6.00 to 7.00

The measured values listed here are drawn from patent US20240360081A1.
